measuredTarget: UniProtKB P9WKD3
Lab note: anything with BlaC kcat below 1 s⁻¹ is marked true; values at 1 s⁻¹ or higher are marked false.

Observe how each entry below is paired with its result.
CC(=O)N[C@@H]1C(=O)N2C(C(=O)O)=C(COc3ccc4ccc(=O)oc4c3)CS[C@H]12    false
CCO[C@@]1(NC(=O)Cc2ccccc2)C(=O)N2C(C(=O)O)=C(COc3ccc4ccc(=O)oc4c3)CS[C@@H]21    true
CCN1CCN(C(=O)N[C@@H](C(=O)N[C@@H]2C(=O)N3C(C(=O)O)=C(COc4ccc5ccc(=O)oc5c4)CS[C@H]23)c2ccccc2)C(=O)C1=O    false
O=C(Cc1ccccc1)N[C@@H]1C(=O)N2C(C(=O)O)=C(COc3ccc4ccc(=O)oc4c3)CS[C@H]12    false

Q. Given CO[C@@]1(NC(C)=O)C(=O)N2C(C(=O)O)=C(COc3ccc4ccc(=O)oc4c3)CS[C@@H]21 , is recorded BlaC kcat strictly lower than 1 s⁻¹?
A. true

----------
measuredTarget: BlaC (Mycobacterium tuberculosis)
Sequence (P9WKD3 35-307 limits assumed): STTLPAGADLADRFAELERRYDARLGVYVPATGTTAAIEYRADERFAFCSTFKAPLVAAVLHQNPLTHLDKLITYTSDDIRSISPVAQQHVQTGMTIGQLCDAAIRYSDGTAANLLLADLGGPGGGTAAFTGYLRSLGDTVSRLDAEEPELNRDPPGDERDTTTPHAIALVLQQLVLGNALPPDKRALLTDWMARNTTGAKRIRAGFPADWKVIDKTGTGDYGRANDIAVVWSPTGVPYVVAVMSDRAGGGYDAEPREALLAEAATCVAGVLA
conditionInfo: read-out: BlaC Km
Please respond with reported Km for every item in the list.
Numbers only, in µM.

# per-item lookup of Km; items listed below
1. O=C(Cc1ccccc1)N[C@@H]1C(=O)N2C(C(=O)O)=C(COc3ccc4ccc(=O)oc4c3)CS[C@H]12 [CDC-1]
2. CC(=O)N[C@@H]1C(=O)N2C(C(=O)O)=C(COc3ccc4ccc(=O)oc4c3)CS[C@H]12 [CDC-4]
3. CO[C@@]1(NC(=O)Cc2ccccc2)C(=O)N2C(C(=O)O)=C(COc3ccc4ccc(=O)oc4c3)CS[C@@H]21 [CDC-OMe]

A.
1. 63
2. 148
3. 47

# per-item lookup of Km; items listed below
1. CCN1CCN(C(=O)N[C@@H](C(=O)N[C@@H]2C(=O)N3C(C(=O)O)=C(COc4ccc5ccc(=O)oc5c4)CS[C@H]23)c2ccccc2)C(=O)C1=O [CDC-3]
2. CCO[C@@]1(NC(=O)Cc2ccccc2)C(=O)N2C(C(=O)O)=C(COc3ccc4ccc(=O)oc4c3)CS[C@@H]21 [CDC-OEt]

A.
[69, 131]

Q. Give BlaC (Mycobacterium tuberculosis) Km for CO[C@@]1(NC(C)=O)C(=O)N2C(C(=O)O)=C(COc3ccc4ccc(=O)oc4c3)CS[C@@H]21 [CDC-5]
A. 139
